Recorded values, source ChEMBL document CHEMBL2176949.

targetUnderTest: Neuronal acetylcholine receptor; alpha4/beta2 (Homo sapiens, UniProt P17787+P43681)
Sequence (P17787 whole entry): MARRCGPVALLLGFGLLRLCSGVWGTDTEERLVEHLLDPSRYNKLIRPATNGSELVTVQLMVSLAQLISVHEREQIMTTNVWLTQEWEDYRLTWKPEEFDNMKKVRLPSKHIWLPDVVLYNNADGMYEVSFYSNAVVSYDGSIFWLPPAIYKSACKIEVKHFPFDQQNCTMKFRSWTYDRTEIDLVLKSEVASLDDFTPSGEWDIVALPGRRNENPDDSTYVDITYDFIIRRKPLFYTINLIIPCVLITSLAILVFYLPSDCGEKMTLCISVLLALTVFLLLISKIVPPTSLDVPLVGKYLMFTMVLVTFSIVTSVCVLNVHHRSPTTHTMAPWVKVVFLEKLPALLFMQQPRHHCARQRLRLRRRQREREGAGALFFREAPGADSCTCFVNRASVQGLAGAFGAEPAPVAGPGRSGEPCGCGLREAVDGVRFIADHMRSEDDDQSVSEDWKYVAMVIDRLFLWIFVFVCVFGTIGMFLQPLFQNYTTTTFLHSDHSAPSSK
Sequence (P43681 whole entry): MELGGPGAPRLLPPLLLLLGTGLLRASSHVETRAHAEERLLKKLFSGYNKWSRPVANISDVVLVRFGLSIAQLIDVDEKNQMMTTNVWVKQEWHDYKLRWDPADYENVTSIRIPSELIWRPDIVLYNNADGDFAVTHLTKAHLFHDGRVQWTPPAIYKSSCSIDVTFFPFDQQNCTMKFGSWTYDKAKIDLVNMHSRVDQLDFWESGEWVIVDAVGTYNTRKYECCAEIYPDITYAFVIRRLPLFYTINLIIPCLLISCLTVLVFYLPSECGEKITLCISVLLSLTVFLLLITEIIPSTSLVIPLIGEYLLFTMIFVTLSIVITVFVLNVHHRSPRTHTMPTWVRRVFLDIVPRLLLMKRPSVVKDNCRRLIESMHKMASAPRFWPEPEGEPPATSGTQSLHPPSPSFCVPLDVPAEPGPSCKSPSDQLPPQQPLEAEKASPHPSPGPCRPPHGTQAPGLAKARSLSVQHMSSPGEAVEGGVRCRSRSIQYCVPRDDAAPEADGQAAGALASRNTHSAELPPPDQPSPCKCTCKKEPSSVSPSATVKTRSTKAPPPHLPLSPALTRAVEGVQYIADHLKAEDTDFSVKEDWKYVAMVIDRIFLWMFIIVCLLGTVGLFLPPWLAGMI
assayComment: Displacement of [3H]nicotine from human alpha4beta2 nAChR expressed in human SH-EP1 cells
attributeMeasured: Ki
Returns: string containing the number followed by the unit.

-- ask Send back Neuronal acetylcholine receptor; alpha4/beta2 (Homo sapiens, UniProt P17787+P43681) Ki of C1=C(c2cncc(OCc3ccccc3)c2)CC2CNCC1C2 (centres undefined) only.
-- reply 0.7 nM

-- ask Send back Neuronal acetylcholine receptor; alpha4/beta2 (Homo sapiens, UniProt P17787+P43681) Ki of COc1ccccc1Oc1cncc(C2=CC3CNCC(C2)C3)c1 (centres undefined) only.
-- reply 1 nM

-- ask Send back Neuronal acetylcholine receptor; alpha4/beta2 (Homo sapiens, UniProt P17787+P43681) Ki of COc1cccc(Oc2cncc(C3=CC4CNCC(C3)C4)c2)c1 (centres undefined) only.
-- reply 0.9 nM

-- ask Send back Neuronal acetylcholine receptor; alpha4/beta2 (Homo sapiens, UniProt P17787+P43681) Ki of COc1ccc(Oc2cncc(C3=CC4CNCC(C3)C4)c2)cc1 (centres undefined) only.
-- reply 1.4 nM
